Tested Target: SFRP-1 (Homo sapiens, UniProt Q8N474)
Sequence (Q8N474 32-314): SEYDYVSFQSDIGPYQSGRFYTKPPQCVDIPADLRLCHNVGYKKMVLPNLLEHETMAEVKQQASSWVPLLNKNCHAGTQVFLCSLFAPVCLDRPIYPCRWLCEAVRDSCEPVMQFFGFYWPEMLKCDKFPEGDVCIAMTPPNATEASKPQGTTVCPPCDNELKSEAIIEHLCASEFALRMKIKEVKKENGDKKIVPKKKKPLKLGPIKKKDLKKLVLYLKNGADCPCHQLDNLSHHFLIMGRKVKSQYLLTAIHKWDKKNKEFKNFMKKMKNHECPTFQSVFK
Test Name: Cell-based assay for in vitro measurement of SFRP-1/SARP2 antagonist activity (U2OS cells co-transfected with 16x TCF-tk-Luciferase reporter, Wnt and hSFRP-1)
Details: U2OS, read-out: Fold Induction without SFRP-1, Conc 15 μM; single dose; luciferase reporter; cells without SFRP-1 (specificity control)
Field 'label' (enum: class 1 / class 0). Set to class 1 when fold induction at 15 µM is strictly under 1; else class 0.

Task: Consider `CN(CCc1ccccn1)S(=O)(=O)c1cc(S(=O)(=O)c2ccccc2)ccc1Cl` . Does its fold induction at 15 µM lie strictly below 1?
Output: class 0

Task: Here is the next compound: `CCCc1ccc(S(=O)(=O)c2ccccc2)cc1S(=O)(=O)NCCCn1ccnc1`
Output: class 0

Task: Then this compound: `O=S(=O)(NCCc1cccnc1)c1cc(S(=O)(=O)c2ccccc2)ccc1Cl`
Output: class 0

Task: Check `CC(C)c1cc(C(C)C)c(S(=O)(=O)c2ccccc2)cc1S(=O)(=O)NCC1CCOCC1` too.
Output: class 0

Task: # repeat for `Cc1c(S(=O)(=O)NCCN2CCOCC2)cccc1S(=O)(=O)c1ccccc1`
Output: class 0

Task: Then `CN(C)c1ccc(S(=O)(=O)c2ccccc2)cc1S(=O)(=O)NCCc1ccccn1` ?
Output: class 1

* * *

Tested Target: SFRP-1 (Homo sapiens)
Test Name: Cell-based assay for in vitro measurement of SFRP-1/SARP2 antagonist activity (U2OS cells co-transfected with 16x TCF-tk-Luciferase reporter, Wnt and hSFRP-1);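 note: U2OS cells co-transfected with a TCF-tk luciferase reporter, a Wnt vector, hSFRP-1 or empty vector and CMV-βgal, luciferase luminescence read in cell lysates alongside βgal activity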
Details: U2OS, read-out: Fold Induction with SFRP-1, U2OS cells, single dose 10 μM, luciferase reporter, fold induction over SFRP-1 control
Provide the recorded fold induction at 10 µM for the entries that follow.
Lab note: record just the number, no unit beside it.

Task: Returns the measured fold induction at 10 µM for the input compound. Input: C[C@@H](NS(=O)(=O)c1cc(S(=O)(=O)c2ccccc2)ccc1C(F)(F)F)[C@H](O)c1ccccc1 (relative stereo)
Output: 1.7

Task: Same read-out for `CC(C)c1ccc(S(=O)(=O)c2ccccc2)cc1S(=O)(=O)NC1CCN(C(=O)OC(C)(C)C)CC1` ?
Output: 2.4

Task: Now try `O=S(=O)(NC1Cc2ccccc2C1)c1cc(S(=O)(=O)c2ccccc2)ccc1C(F)(F)F` .
Output: 1.2

Task: Same question for `COc1ccc(C(=O)N2CCC(NS(=O)(=O)c3cc(S(=O)(=O)c4ccccc4)ccc3C(F)(F)F)CC2)c(OC)c1` please.
Output: 3.7

Task: Would you mind doing `CCCc1ccc(S(=O)(=O)c2ccccc2)cc1S(=O)(=O)NCCc1ccncc1` as well?
Output: 3.6

Task: Further, for `COc1cc(C(=O)N2CCC(NS(=O)(=O)c3cc(S(=O)(=O)c4ccccc4)ccc3C(F)(F)F)CC2)cc(Cl)n1` ?
Output: 4.9

Task: Here is the next compound: `CN(CCNS(=O)(=O)c1cc(S(=O)(=O)c2ccccc2)ccc1C(F)(F)F)C(=O)NC(C)(C)C`
Output: 2.7

Task: How about `O=S(=O)(NC1CCN(Cc2nn[nH]n2)CC1)c1cc(S(=O)(=O)c2ccccc2)ccc1C(F)(F)F` ?
Output: 2.7

Task: Also, `O=C(NCCNS(=O)(=O)c1cc(S(=O)(=O)c2ccccc2)ccc1C(F)(F)F)c1ccc(Br)cc1` please.
Output: 1

Task: Entry `Cc1ccc(S(=O)(=O)c2ccccc2)cc1S(=O)(=O)NCCC(=O)N1CCCC1` please
Output: 1.3

Task: Try the compound CC(C)c1ccc(S(=O)(=O)c2ccc(F)cc2)cc1S(=O)(=O)NCCC1CCCNC1 (stereo not drawn)
Output: 2.7

Task: How about this compound: `COc1ccc(S(=O)(=O)c2ccccc2)cc1S(=O)(=O)NCCc1cccnc1`
Output: 1.6

Task: Field entry: O=C(O)CCCC(=O)N1CCC(NS(=O)(=O)c2cc(S(=O)(=O)c3ccccc3)ccc2C(F)(F)F)C1 (stereo not drawn)
Output: 2.9

Task: Same question, `COCCCNS(=O)(=O)c1cc(S(=O)(=O)c2ccccc2)ccc1C(F)(F)F` this time
Output: 3.4

Task: Continue with `CN(CCNS(=O)(=O)c1cc(S(=O)(=O)c2ccccc2)ccc1C(F)(F)F)C(=O)N(C)c1ccccc1`
Output: 2.8

Task: Now give it for `O=S(=O)(NC1CCOCC1)c1cc(S(=O)(=O)c2ccccc2)ccc1OC(F)(F)F` too.
Output: 3.3

Task: Try this compound too: CC(CO)NS(=O)(=O)c1cc(S(=O)(=O)c2ccc(F)cc2)ccc1C(C)C (stereo not drawn)
Output: 2.5

Task: Repeat with CC(CO)NS(=O)(=O)c1cc(S(=O)(=O)c2ccccc2)ccc1C(F)(F)F (stereo not drawn)
Output: 3.7

Task: Now this one: `COc1ccc(NC(=S)N2CCC(NS(=O)(=O)c3cc(S(=O)(=O)c4ccc(F)cc4)ccc3C(C)C)CC2)cc1`
Output: 2.1

Task: Next compound up: O=S(=O)(NCC(O)c1cccnc1)c1cc(S(=O)(=O)c2ccccc2)ccc1C(F)(F)F (stereo not drawn)
Output: 4.8

Task: Try `O=S(=O)(NC[C@@H](O)c1ccccc1)c1cc(S(=O)(=O)c2ccccc2)ccc1C(F)(F)F` next.
Output: 1.3

Task: Repeat with CCC(O)CNS(=O)(=O)c1cc(S(=O)(=O)c2ccc(F)cc2)ccc1C(C)C (stereo not drawn)
Output: 2.9

Task: What about CC(C)c1ccc(S(=O)(=O)c2ccc(F)cc2)cc1S(=O)(=O)NCC(O)c1ccccc1 (stereo not drawn) ?
Output: 4.2

Task: // next record `CNCCCNS(=O)(=O)c1cc(S(=O)(=O)c2ccccc2)ccc1C(F)(F)F`
Output: 2.9

Task: And what about the compound `CC(C)(C)OC(=O)N1CC[C@H](NS(=O)(=O)c2cc(S(=O)(=O)c3ccccc3)ccc2C(F)(F)F)C1` ?
Output: 3.3

Task: Next compound up: `O=C(O)CCNS(=O)(=O)c1cc(S(=O)(=O)c2ccccc2)ccc1C(F)(F)F`
Output: 1.3

Task: Another compound: `CC(C)c1ccc(S(=O)(=O)c2ccc(F)cc2)cc1S(=O)(=O)NC1CCN(C(=S)Nc2cccc3ccccc23)CC1`
Output: 2.3

Task: Please do the same for `CCCc1ccc(S(=O)(=O)c2ccccc2)cc1S(=O)(=O)NCCc1cccnc1` as well.
Output: 3

Task: Can you handle `O=S(=O)(NCCc1ccc(Br)cc1)c1cc(S(=O)(=O)c2ccccc2)ccc1C(F)(F)F` next?
Output: 1.4

Task: Same for COC(=O)C1CCCC(NS(=O)(=O)c2cc(S(=O)(=O)c3ccccc3)ccc2C(C)C)C1 (stereo not drawn)
Output: 2.8
